Source of measurements: patent US5668152A

target_under_test: protein kinase C gamma (Homo sapiens)
protocol_details: PKC Enzyme assay, gamma isozyme
Format: biochemical
parameter: pIC50
Hey, just a heads up that pIC50 is the negative log base 10 of the concentration in molar.

Find the recorded pIC50 belonging to Cn1cc(C2=C(c3cn(C4CCN(Cc5ccccc5)CC4)c4ccccc34)C(=O)NC2=O)c2ccccc21 and report it.
5.40

Find the recorded pIC50 belonging to Cn1cc(C2=C(c3cn(C4CCN(C(=O)OC(C)(C)C)CC4)c4ccccc34)C(=O)NC2=O)c2ccccc21 and report it.
5.28

Find the recorded pIC50 belonging to CN(C)CCCn1cc(C2=C(c3c[nH]c4ccccc34)C(=O)NC2=O)c2ccccc21 and report it.
5.98

###

target_under_test: protein kinase C gamma (Homo sapiens, UniProt P05129)
protocol_details: PKC Enzyme assay, gamma isozyme
Type: biochemical
stated_conditions: PKC gamma; 30 μM ATP, 30° C., 10 minutes; read-out: IC50 γ
So I've got a bunch of compounds here, and I need their IC50 values.
Report only the number, with the unit nM understood.

Find the recorded IC50 belonging to Cn1cc(C2=C(c3cn(C4CN(C(c5ccccc5)c5ccccc5)C4)c4ccccc34)C(=O)NC2=O)c2ccccc21 [Example 72] and report it.
90000

Find the recorded IC50 belonging to CC(=O)N1CCC(n2cc(C3=C(c4cn(C)c5ccccc45)C(=O)NC3=O)c3ccccc32)CC1 [Example 37] and report it.
1000

Find the recorded IC50 belonging to Cn1cc(C2=C(c3cn(CCOC4O[C@H](CO)[C@@H](O)[C@@H](N=[N+]=[N-])[C@H]4O)c4ccccc34)C(=O)NC2=O)c2ccccc21 (stereo partly shown) [Example 59] and report it.
9000

Find the recorded IC50 belonging to Cn1cc(C2=C(c3cn(C4CCN(CC5CC5)CC4)c4ccccc34)C(=O)NC2=O)c2ccccc21 [Example 39] and report it.
400

Find the recorded IC50 belonging to Cn1cc(C2=C(c3c4n(c5ccccc35)CCC(CO)C4)C(=O)NC2=O)c2ccccc21 (stereo not shown) [Example 9] and report it.
1500

Find the recorded IC50 belonging to Cn1cc(C2=C(c3cn(C4CCN(C(=N)N)CC4)c4ccccc34)C(=O)NC2=O)c2ccccc21 [Example 44] and report it.
82

Find the recorded IC50 belonging to CN(C)CCCN1CCC(n2cc(C3=C(c4cn(C)c5ccccc45)C(=O)NC3=O)c3ccccc32)CC1 [Example 41] and report it.
4000

###

target_under_test: UniProtKB P05771
protocol_details: PKC Enzyme assay, beta I isozyme
Assay type: biochemical
stated_conditions: PKC beta-1; 30 μM ATP, 30° C., 10 minutes; read-out: IC50 β1
So I've got a bunch of compounds here, and I need their IC50 values.
Report only the number, with the unit nM understood.

Find the recorded IC50 belonging to O=C1NC(=O)C(c2cn(CCCO)c3ccccc23)=C1c1c[nH]c2ccccc12 and report it.
39

Find the recorded IC50 belonging to O=C1NC(=O)C(c2cn(C3CCNCC3)c3ccccc23)=C1c1c[nH]c2ccccc12 and report it.
30

Find the recorded IC50 belonging to Cc1c(C2=C(c3cn(CN(C)C)c4ccccc34)C(=O)NC2=O)c2ccccc2n1CCCN(C)C and report it.
140

Find the recorded IC50 belonging to Cn1cc(C2=C(c3cn(CCCCOC4C[C@H](O)[C@@H](CO)O4)c4ccccc34)C(=O)NC2=O)c2ccccc21 (stereo partly shown) and report it.
69

###

target_under_test: protein kinase C beta-1 (Homo sapiens)
Sequence (P05771 whole entry): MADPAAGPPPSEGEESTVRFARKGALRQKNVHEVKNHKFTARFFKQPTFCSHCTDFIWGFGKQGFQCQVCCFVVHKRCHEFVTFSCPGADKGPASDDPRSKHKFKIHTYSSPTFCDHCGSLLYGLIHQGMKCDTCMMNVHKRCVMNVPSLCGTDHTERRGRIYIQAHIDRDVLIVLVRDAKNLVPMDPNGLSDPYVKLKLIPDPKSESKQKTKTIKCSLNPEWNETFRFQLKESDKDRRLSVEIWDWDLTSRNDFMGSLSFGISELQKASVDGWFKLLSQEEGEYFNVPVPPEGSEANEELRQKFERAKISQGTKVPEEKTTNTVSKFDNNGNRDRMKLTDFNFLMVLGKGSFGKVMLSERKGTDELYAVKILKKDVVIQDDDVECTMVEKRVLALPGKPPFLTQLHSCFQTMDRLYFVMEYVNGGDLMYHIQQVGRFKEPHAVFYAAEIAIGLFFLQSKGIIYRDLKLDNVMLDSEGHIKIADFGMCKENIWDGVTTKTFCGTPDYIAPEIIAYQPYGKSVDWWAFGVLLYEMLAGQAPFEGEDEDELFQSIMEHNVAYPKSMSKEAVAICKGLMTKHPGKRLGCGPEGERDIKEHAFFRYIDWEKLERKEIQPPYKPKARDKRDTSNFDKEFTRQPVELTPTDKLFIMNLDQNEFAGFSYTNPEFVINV
protocol_details: PKC Enzyme assay, beta I isozyme
Type: biochemical
stated_conditions: PKC beta-1; 30 μM ATP, 30° C., 10 minutes; read-out: IC50 β1
So I've got a bunch of compounds here, and I need their IC50 values.
Report only the number, with the unit nM understood.

Find the recorded IC50 belonging to CN1CCC(Cn2cc(C3=C(c4cn(C)c5ccccc45)C(=O)NC3=O)c3ccccc32)CC1 [Example 68] and report it.
47

Find the recorded IC50 belonging to Cn1cc(C2=C(c3cn(C4CCN(C(=NC(=O)OC(C)(C)C)NC(=O)OC(C)(C)C)CC4)c4ccccc34)C(=O)NC2=O)c2ccccc21 [Example 5] and report it.
44

Find the recorded IC50 belonging to Cn1cc(C2=C(c3cn(CCO[C@H]4O[C@H](CN)[C@H](O)[C@H](O)[C@H]4O)c4ccccc34)C(=O)NC2=O)c2ccccc21 [Example 65] and report it.
390

Find the recorded IC50 belonging to Cn1cc(C2=C(c3cn(CCOC4O[C@H](CO)[C@@H](O)[C@@H](N=[N+]=[N-])[C@H]4O)c4ccccc34)C(=O)NC2=O)c2ccccc21 (stereo partly drawn) [Example 59] and report it.
200

Find the recorded IC50 belonging to CCN1CCC(n2cc(C3=C(c4cn(C)c5ccccc45)C(=O)NC3=O)c3ccccc32)CC1 [Example 40] and report it.
20

Find the recorded IC50 belonging to Cc1c(C2=C(c3c(C)n(CN(C)C)c4ccccc34)C(=O)NC2=O)c2ccccc2n1CCCN(C)C [Example 16] and report it.
700

###

So I've got a bunch of molecules here, and I need their pIC50 values.
target_under_test: protein kinase C eta (Homo sapiens, UniProt P24723)
Sequence (P24723 whole entry): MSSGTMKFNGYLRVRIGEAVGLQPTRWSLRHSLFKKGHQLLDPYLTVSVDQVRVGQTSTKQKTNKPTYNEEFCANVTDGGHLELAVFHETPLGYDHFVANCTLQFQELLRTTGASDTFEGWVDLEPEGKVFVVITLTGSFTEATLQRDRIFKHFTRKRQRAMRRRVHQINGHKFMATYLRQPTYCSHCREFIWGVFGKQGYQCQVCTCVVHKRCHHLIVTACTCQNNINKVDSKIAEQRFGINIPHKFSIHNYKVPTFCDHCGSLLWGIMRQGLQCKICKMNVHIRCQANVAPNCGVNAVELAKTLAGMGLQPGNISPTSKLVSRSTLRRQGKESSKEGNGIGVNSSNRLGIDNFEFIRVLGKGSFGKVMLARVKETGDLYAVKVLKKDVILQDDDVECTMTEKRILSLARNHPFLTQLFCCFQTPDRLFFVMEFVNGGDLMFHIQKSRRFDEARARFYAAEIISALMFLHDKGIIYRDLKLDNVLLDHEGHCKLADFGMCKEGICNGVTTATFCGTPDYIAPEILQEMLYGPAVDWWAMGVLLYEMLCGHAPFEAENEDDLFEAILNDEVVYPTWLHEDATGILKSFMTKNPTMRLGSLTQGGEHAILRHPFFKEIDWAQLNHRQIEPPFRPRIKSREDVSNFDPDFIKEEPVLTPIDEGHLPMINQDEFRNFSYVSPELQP
protocol_details: PKC Enzyme assay, eta isozyme
Type: biochemical
stated_conditions: PKC eta; 30 μM ATP, 30° C., 10 minutes; read-out: IC50 η
Hey, just a heads up that pIC50 is the negative log base 10 of the concentration in molar.

Give protein kinase C eta (Homo sapiens, UniProt P24723) pIC50 for Cn1cc(C2=C(c3cn(CCO[C@H]4O[C@H](CN)[C@H](O)[C@H](O)[C@H]4O)c4ccccc34)C(=O)NC2=O)c2ccccc21
5.47

Give protein kinase C eta (Homo sapiens, UniProt P24723) pIC50 for Cn1cc(C2=C(c3cn(C4CCN(CC5CC5)CC4)c4ccccc34)C(=O)NC2=O)c2ccccc21
7.30

Give protein kinase C eta (Homo sapiens, UniProt P24723) pIC50 for Cn1cc(C2=C(c3cn(CCCCOC4CC(O)C(CN)O4)c4ccccc34)C(=O)NC2=O)c2ccccc21 (stereo not shown) [Example 54]
5.60

Give protein kinase C eta (Homo sapiens, UniProt P24723) pIC50 for CN1CCC(n2cc(C3=C(c4cn(C)c5ccccc45)C(=O)NC3=O)c3ccccc32)CC1
7.30

Give protein kinase C eta (Homo sapiens, UniProt P24723) pIC50 for Cn1cc(C2=C(c3cn(C4CCNCC4)c4ccccc34)C(=O)NC2=O)c2ccccc21
6.70

Give protein kinase C eta (Homo sapiens, UniProt P24723) pIC50 for Cn1cc(C2=C(c3cn(C4CCN(C(=NC(=O)OC(C)(C)C)NC(=O)OC(C)(C)C)CC4)c4ccccc34)C(=O)NC2=O)c2ccccc21
6.82

Give protein kinase C eta (Homo sapiens, UniProt P24723) pIC50 for CC(C)N1CCC(n2cc(C3=C(c4cn(C)c5ccccc45)C(=O)NC3=O)c3ccccc32)CC1
6.89

###

So I've got a bunch of compounds here, and I need their pIC50 values.
target_under_test: protein kinase C epsilon (Homo sapiens)
Sequence (Q02156 whole entry): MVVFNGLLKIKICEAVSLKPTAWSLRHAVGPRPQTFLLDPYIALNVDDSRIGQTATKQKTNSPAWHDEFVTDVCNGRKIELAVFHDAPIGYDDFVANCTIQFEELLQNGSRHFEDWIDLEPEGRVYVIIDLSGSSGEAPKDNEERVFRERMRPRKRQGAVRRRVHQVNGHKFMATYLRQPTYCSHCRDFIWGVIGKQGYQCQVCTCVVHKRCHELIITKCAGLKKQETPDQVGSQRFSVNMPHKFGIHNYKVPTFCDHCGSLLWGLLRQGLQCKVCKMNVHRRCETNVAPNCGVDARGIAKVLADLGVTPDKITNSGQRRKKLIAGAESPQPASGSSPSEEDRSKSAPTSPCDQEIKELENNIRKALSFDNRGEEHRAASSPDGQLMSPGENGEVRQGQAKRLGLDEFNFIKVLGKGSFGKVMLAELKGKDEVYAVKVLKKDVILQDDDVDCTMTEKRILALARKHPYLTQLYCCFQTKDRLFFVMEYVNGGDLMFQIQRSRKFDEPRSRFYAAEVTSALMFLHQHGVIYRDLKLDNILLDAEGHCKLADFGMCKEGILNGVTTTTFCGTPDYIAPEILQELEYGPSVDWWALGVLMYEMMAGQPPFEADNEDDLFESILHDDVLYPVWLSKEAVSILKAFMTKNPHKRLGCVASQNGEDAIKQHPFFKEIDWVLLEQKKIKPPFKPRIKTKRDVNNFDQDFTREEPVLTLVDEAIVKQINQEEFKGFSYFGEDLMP
protocol_details: PKC Enzyme assay, epsilon isozyme
Type: biochemical
stated_conditions: PKC epsilon; 30 μM ATP, 30° C., 10 minutes; read-out: IC50 ε
Hey, just a heads up that pIC50 is the negative log base 10 of the concentration in molar.

Find the recorded pIC50 belonging to CC(=O)OCC1(COC(C)=O)CCn2c(c(C3=C(c4cn(C)c5ccccc45)C(=O)NC3=O)c3ccccc32)C1 and report it.
3.82

Find the recorded pIC50 belonging to Cn1cc(C2=C(c3cn(C4CCN(C(=NC(=O)OC(C)(C)C)NC(=O)OC(C)(C)C)CC4)c4ccccc34)C(=O)NC2=O)c2ccccc21 and report it.
5.59

Find the recorded pIC50 belonging to O=C1NC(=O)C(c2cn(CCCO)c3ccccc23)=C1c1c[nH]c2ccccc12 and report it.
6.17

Find the recorded pIC50 belonging to Cn1cc(C2=C(c3cn(CCOC4C[C@H](N)[C@@H](CO)O4)c4ccccc34)C(=O)NC2=O)c2ccccc21 (stereo partly shown) and report it.
5.44

###

So I've got a bunch of compounds here, and I need their IC50 values.
target_under_test: protein kinase C eta (Homo sapiens, UniProt P24723)
protocol_details: PKC Enzyme assay, eta isozyme
Format: biochemical
stated_conditions: PKC eta; 30 μM ATP, 30° C., 10 minutes; read-out: IC50 η
Report only the number, with the unit nM understood.

Find the recorded IC50 belonging to Cn1cc(C2=C(c3cn(C4CN(C(c5ccccc5)c5ccccc5)C4)c4ccccc34)C(=O)NC2=O)c2ccccc21 and report it.
42

Find the recorded IC50 belonging to Cn1cc(C2=C(c3cn(CCO[C@@H]4O[C@H](CN=[N+]=[N-])[C@H](O)[C@H](O)[C@H]4O)c4ccccc34)C(=O)NC2=O)c2ccccc21 and report it.
4000

Find the recorded IC50 belonging to CCOC(=O)CN1CCC(n2cc(C3=C(c4cn(C)c5ccccc45)C(=O)NC3=O)c3ccccc32)CC1 and report it.
2000
